Values from paper PMC6299481

# target: PDC-3 β-lactamase (Pseudomonas aeruginosa, UniProt P24735, T105A)
# Construct: produces the corresponding PDC-3 protein without its signal peptide
# testSummary: BATSI inhibition kinetics (IC50), nitrocefin reporter
# conditionDescription: PDC-3 (1.5 nM); 5-min preincubation; 100 μM nitrocefin reporter substrate
endpoint: IC50 (nM)

In [3]: df
Out[3]:
                                   compound  reported
0  O=C(Cc1cccs1)N[C@@H](Cn1cc(C(=O)O)nn1)B(O)O [S02030]        62

----------
Entries and their log10(MIC) values follow.
# Tested on: E. coli DH10B
endpoint: log10(MIC) (log10 of the value in µg/mL)

                                   compound         target    endpoint  reported
0  Cn1c(N)c(NC(=O)NCCN)c[n+]1CC1=C(C(=O)O)N2C(=O)[C@@H](NC(=O)/C(=N\OC(C)(C)C(=O)[O-])c3nsc(N)n3)[C@H]2SC1  E. coli DH10B  log10(MIC)     -0.30
1  CO/N=C(\C(=O)N[C@@H]1C(=O)N2C(C(=O)[O-])=C(C[N+]3(C)CCCC3)CS[C@H]12)c1csc(N)n1 [Cefepime]  E. coli DH10B  log10(MIC)     -0.90
2  C[C@H]1[C@H](NC(=O)/C(=N\OC(C)(C)C(=O)O)c2csc(N)n2)C(=O)N1S(=O)(=O)O  E. coli DH10B  log10(MIC)     -0.90
3  CC1(C)S[C@@H]2[C@H](NC(=O)[C@H](N)c3ccccc3)C(=O)N2[C@H]1C(=O)O  E. coli DH10B  log10(MIC)      0.60
4  CCN1CCN(C(=O)N[C@@H](C(=O)N[C@@H]2C(=O)N3[C@@H]2SC(C)(C)[C@@H]3C(=O)O)c2ccccc2)C(=O)C1=O  E. coli DH10B  log10(MIC)      0.30
5  CC(C)(O/N=C(\C(=O)N[C@@H]1C(=O)N2C(C(=O)[O-])=C(C[n+]3ccccc3)CS[C@H]12)c1csc(N)n1)C(=O)O  E. coli DH10B  log10(MIC)     -0.60

----------
# Test system: E. coli DH10B pBC SK
Below is a list of entries, each paired with its recorded MIC value.
endpoint: MIC (µg/mL)

>>> df
                                   compound  endpointunit  measurementqualifier  reported
0  CO/N=C(\C(=O)N[C@@H]1C(=O)N2C(C(=O)O)=C(COC(C)=O)CS[C@H]12)c1csc(N)n1         µg/mL                     <      0.06
1  CO/N=C(\C(=O)N[C@@H]1C(=O)N2C(C(=O)[O-])=C(C[N+]3(C)CCCC3)CS[C@H]12)c1csc(N)n1 [Cefepime]         µg/mL                     <      0.06
2  CC1(C)S[C@@H]2[C@H](NC(=O)[C@H](N)c3ccccc3)C(=O)N2[C@H]1C(=O)O         µg/mL                     =         4
3  C[C@@H](O)[C@H]1C(=O)N2C(C(=O)O)=C(SCCN=CN)C[C@H]12         µg/mL                     =      0.25

----------
# Tested on: E. coli DH10B pBC SK blaPDC-3 V213A
# testSummary: MIC, MH agar dilution (CLSI)
# Type: cell-based
# conditionDescription: Escherichia coli, β-lactam alone
endpoint: MIC (µg/mL)

>>> df
                                   compound  endpoint  reported
0  CC1(C)S[C@@H]2[C@H](NC(=O)[C@H](N)c3ccccc3)C(=O)N2[C@H]1C(=O)O       MIC      1020
1  CCN1CCN(C(=O)N[C@@H](C(=O)N[C@@H]2C(=O)N3[C@@H]2SC(C)(C)[C@@H]3C(=O)O)c2ccccc2)C(=O)C1=O       MIC        64
2  CO/N=C(\C(=O)N[C@@H]1C(=O)N2C(C(=O)[O-])=C(C[N+]3(C)CCCC3)CS[C@H]12)c1csc(N)n1 [Cefepime]       MIC     0.125
3  CO/N=C(\C(=O)N[C@@H]1C(=O)N2C(C(=O)O)=C(COC(C)=O)CS[C@H]12)c1csc(N)n1       MIC        16
4  C[C@H]1[C@H](NC(=O)/C(=N\OC(C)(C)C(=O)O)c2csc(N)n2)C(=O)N1S(=O)(=O)O       MIC         8
5  C[C@@H](O)[C@H]1C(=O)N2C(C(=O)O)=C(SCCN=CN)C[C@H]12       MIC       0.5
6  Cn1c(N)c(NC(=O)NCCN)c[n+]1CC1=C(C(=O)O)N2C(=O)[C@@H](NC(=O)/C(=N\OC(C)(C)C(=O)[O-])c3nsc(N)n3)[C@H]2SC1       MIC         4
7  CC(C)(O/N=C(\C(=O)N[C@@H]1C(=O)N2C(C(=O)[O-])=C(C[n+]3ccccc3)CS[C@H]12)c1csc(N)n1)C(=O)O       MIC        32

----------
# target: E221K variant of PDC-3 β-lactamase (Pseudomonas aeruginosa, UniProt P24735, E247K/T105A)
# Construct: produces the corresponding PDC-3 protein without its signal peptide
# testSummary: BATSI inhibition kinetics (IC50), nitrocefin reporter
# conditionDescription: E221K (20 nM); 5-min preincubation; 100 μM nitrocefin reporter substrate
endpoint: IC50 (µM)

>>> print(df.to_string())
                                querysmiles  endpoint  reported
0  O=C(Cc1cccs1)N[C@@H](Cn1cc(C(=O)O)nn1)B(O)O      IC50     0.769

----------
# System: E. coli DH10B pBC SK
endpoint: MIC (µg/mL)

In [3]: df
Out[3]:
                                querysmiles                target  reported
0  Cn1c(N)c(NC(=O)NCCN)c[n+]1CC1=C(C(=O)O)N2C(=O)[C@@H](NC(=O)/C(=N\OC(C)(C)C(=O)[O-])c3nsc(N)n3)[C@H]2SC1  E. coli DH10B pBC SK       0.5
1  CC(C)(O/N=C(\C(=O)N[C@@H]1C(=O)N2C(C(=O)[O-])=C(C[n+]3ccccc3)CS[C@H]12)c1csc(N)n1)C(=O)O  E. coli DH10B pBC SK      0.25
2  C[C@H]1[C@H](NC(=O)/C(=N\OC(C)(C)C(=O)O)c2csc(N)n2)C(=O)N1S(=O)(=O)O  E. coli DH10B pBC SK     0.125
3  CCN1CCN(C(=O)N[C@@H](C(=O)N[C@@H]2C(=O)N3[C@@H]2SC(C)(C)[C@@H]3C(=O)O)c2ccccc2)C(=O)C1=O  E. coli DH10B pBC SK         2

----------
# System: E. coli DH10B pBC SK blaPDC-3 G216A
# testSummary: MIC, MH agar dilution (CLSI)
# Type: cell-based
# conditionDescription: Escherichia coli; β-lactam alone; E. coli DH10B pBC SK blaPDC-3 G216A (Table 2 prints G216)
endpoint: MIC

>>> df
                                   compound  endpoint     reported
0  C[C@@H](O)[C@H]1C(=O)N2C(C(=O)O)=C(SCCN=CN)C[C@H]12 [Imipenem]       MIC    0.5 µg/mL
1  CCN1CCN(C(=O)N[C@@H](C(=O)N[C@@H]2C(=O)N3[C@@H]2SC(C)(C)[C@@H]3C(=O)O)c2ccccc2)C(=O)C1=O [Piperacillin]       MIC     64 µg/mL
2  CC1(C)S[C@@H]2[C@H](NC(=O)[C@H](N)c3ccccc3)C(=O)N2[C@H]1C(=O)O [Ampicillin]       MIC   1020 µg/mL
3  CC(C)(O/N=C(\C(=O)N[C@@H]1C(=O)N2C(C(=O)[O-])=C(C[n+]3ccccc3)CS[C@H]12)c1csc(N)n1)C(=O)O [Ceftazidime]       MIC     16 µg/mL
4  C[C@H]1[C@H](NC(=O)/C(=N\OC(C)(C)C(=O)O)c2csc(N)n2)C(=O)N1S(=O)(=O)O [Aztreonam]       MIC      8 µg/mL
5  CO/N=C(\C(=O)N[C@@H]1C(=O)N2C(C(=O)[O-])=C(C[N+]3(C)CCCC3)CS[C@H]12)c1csc(N)n1 [Cefepime]       MIC  0.125 µg/mL
6  Cn1c(N)c(NC(=O)NCCN)c[n+]1CC1=C(C(=O)O)N2C(=O)[C@@H](NC(=O)/C(=N\OC(C)(C)C(=O)[O-])c3nsc(N)n3)[C@H]2SC1 [Ceftolozane]       MIC      2 µg/mL
7  CO/N=C(\C(=O)N[C@@H]1C(=O)N2C(C(=O)O)=C(COC(C)=O)CS[C@H]12)c1csc(N)n1 [Cefotaxime]       MIC      8 µg/mL
